System: MS2 coat protein
Assay: apparent KD of MS2 coat protein; higher = weaker reporter binding
Conditions: Eterna round: R107; input ligand: arginine 13.2 mM
Exercise: for every item that follows, state its recorded apparent KD of MS2 coat protein.
Enter your answer as a number in nM; do not include the unit.

Enquiry: Consider the sequence ACCUGCGUUUGUUUCUUUCUGACGCAGGUUCGAGGACCGGUACGGCCGCCACUCGGACAUGAGGAUCACCCAUGUUUGACAUGGG [#02 Exclusion Tryptophan A] and give its measured apparent KD of MS2 coat protein.
Return: 229

Enquiry: Consider the sequence CCUCAUGAACAUGAGGAUCACCCAUGUACACGAGGACCGGUACGGCCGCCACUCGAAUAAGCUAAAUAUAAAUAAUAAUAAUAGC [5' end split MS2] and give its measured apparent KD of MS2 coat protein.
Return: 18.4

Enquiry: Consider the sequence GGGUACAUCGCGGCCGCCACUUAUGUAAAUACAUGAGGAUCACCCAUGUCGAUGGAGACAUCGGAGAGGACCGGGUGAUGUACCG and give its measured apparent KD of MS2 coat protein.
Return: 28.2

Enquiry: Consider the sequence AGCAUGUUAUCAGAUACCAGACAUCUUUUUUUACGUAUUACAUGAGGAUCACCCAUGUUGGUCCCUUGGCAGCUGAAAUAUUUCA [JR_Nu_SSTheophyB_Sub022] and give its measured apparent KD of MS2 coat protein.
Return: 167

Enquiry: Consider the sequence UGUUUGGUGCGCGAGUGUUGGAUAAUUGAUACCAGUGAAGAAGAGCGCCCUUGGCAGCGAAUCCUAACAUGAGGAUCACCCAUGU [5.U] and give its measured apparent KD of MS2 coat protein.
Return: 41.5

Enquiry: Consider the sequence CACGAAAGAUCGGCCGCCACUAUUUGAUGUGUUCUUUCACAUGAGGAUCACCCAUGUUCUUUCUUUAGGACCGGGAUUGAGCGUG [ETB #1] and give its measured apparent KD of MS2 coat protein.
Return: 88.8

---

System: MS2 coat protein
Test: apparent KD of MS2 coat protein; designed switch direction (-1 OFF switch, 1 ON switch): 1; higher = weaker reporter binding
Settings: input ligand: microRNA oligo, concentration not stated
Each entry falls into one class according to its apparent KD of MS2 coat protein; the ranges are lo = under 0.04 µM, mid = from 0.04 µM up to 0.2 µM, hi = 0.2 µM and over

Enquiry: Which category does the recorded apparent KD of MS2 coat protein put GCUGGAACUCACAUGAGGAUCACCCAUGUUCCGGAAACGGCACAGGAUAUCUGUCCGAAAAGGUCAGAGAAGGGUGUAACCAGC [Fiskers NG3ss - 87] (Eterna round: R96, puzzle: Same State NG 3) in?
Return: mid

Enquiry: Which category does the recorded apparent KD of MS2 coat protein put AGCUAUUACGAAGGAUAUAGUGACAUGAGGAUCACCCAUGUGUACAUGAGUAAUUGUGAUCACGUCUAGAAGGUUGUACUAACA [SameState NG2 #35] (Eterna round: R96, puzzle: Same State NG 2) in?
Return: mid

Enquiry: Which category does the recorded apparent KD of MS2 coat protein put AGCUAUUACGAAGGAUAUUCUGACAUGAGGAUCACCCAUGUCUUCAUGAUUUAUUGUGAUCACGUGGAGAAGGUUGUACUAACA [SameState NG2 #27] (Eterna round: R96, puzzle: Same State NG 2) in?
Return: mid

Enquiry: Which category does the recorded apparent KD of MS2 coat protein put AUUAUACAUGAGGAUCACCCAUGUAAUUAAUUAAUUAAGAUCUAGGAUAUCAGCUCGAUUAGAGCUGAGAAGGAGAUCACAUGU [SSNG3/20-C2] (Eterna round: R96, puzzle: Same State NG 3) in?
Return: lo

Enquiry: Which category does the recorded apparent KD of MS2 coat protein put UUCUCCUUUUUUUACAUGAGGAUCACCCAUGUUUUUCUUACGUAGGAUAUCGUUGUUUUUUUUUACGAGAAGGACGUAGUAAGU [JR_SSND3_Sub060] (Eterna round: R96, puzzle: Same State NG 3) in?
Return: lo

Enquiry: Which category does the recorded apparent KD of MS2 coat protein put AAAAUGCGGGAAGGAUAUGGGAAAGGAAGUGUACCAGAAGGUCUCGCGGCCAAGGACAUGAGGAUCACCCAUGUUAACGCCCGA [PowerStrip SSNG 1.8] (Eterna round: R96, puzzle: Same State NG 1) in?
Return: mid

Enquiry: Which category does the recorded apparent KD of MS2 coat protein put UAGUGCGUUAGAGGAUAUUCUAAAAAAAAAAAAAAGACAUGAGGAUCACCCAUGUAUGUACAUGGGAAGAAGGCUGAUGUGCUA [Omei SS(NG)2 B] (Eterna round: R96, puzzle: Same State NG 2) in?
Return: hi

Enquiry: Which category does the recorded apparent KD of MS2 coat protein put AUUAUUUAUGCAGGAUAUGAUUAACAUGAGGAUCACCCAUGUGGUGUUGUGAGUAAGGAGAGUGAUCAGAAGGGCAUUUUUUUC [JMF's solution 59] (Eterna round: R96, puzzle: Same State NG 2) in?
Return: hi

Enquiry: Which category does the recorded apparent KD of MS2 coat protein put GUGAGAUGUUCAGGAUAUUUCAGGAUAGUUAAUCCAAGGCCAUCACAUGAGGAUCACCCAUGUCGAGAGAAGGGAAUUCUCAGG [Eternabot solution 43] (Eterna round: R96, puzzle: Same State NG 2) in?
Return: hi
